Biological target: UniProt Q8IL11
Sequence (Q8IL11 whole entry): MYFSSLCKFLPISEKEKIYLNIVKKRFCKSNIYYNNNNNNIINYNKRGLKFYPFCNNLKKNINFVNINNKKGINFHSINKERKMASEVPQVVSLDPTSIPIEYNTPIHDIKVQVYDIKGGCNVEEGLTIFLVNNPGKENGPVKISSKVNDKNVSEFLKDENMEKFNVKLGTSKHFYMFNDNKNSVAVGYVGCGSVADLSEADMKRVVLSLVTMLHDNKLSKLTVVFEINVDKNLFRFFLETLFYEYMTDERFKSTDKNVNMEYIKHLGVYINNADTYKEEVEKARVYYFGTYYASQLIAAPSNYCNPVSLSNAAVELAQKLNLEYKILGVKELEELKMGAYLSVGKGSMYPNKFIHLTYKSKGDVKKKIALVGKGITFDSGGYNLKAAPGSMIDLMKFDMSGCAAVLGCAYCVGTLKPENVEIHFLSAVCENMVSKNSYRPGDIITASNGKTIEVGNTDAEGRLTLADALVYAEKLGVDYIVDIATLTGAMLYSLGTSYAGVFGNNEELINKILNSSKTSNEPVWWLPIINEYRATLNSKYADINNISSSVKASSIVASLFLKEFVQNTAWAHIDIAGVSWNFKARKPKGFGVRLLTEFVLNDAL
Assay: P. falciparum M17LAP inhibitors, primary screen, biochemical, fluorogenic H-Leu-NHMec substrate, 1536-well (AID 1619)
Format: functional
Active and inactive are the calls of the source. No rule for the calls is given here.
Recorded IC50 for the following compounds

Consider the following illustrative entries.
| Smiles Record | Measured On | IC50 |
| --- | --- | --- |
| CC(=O)Nc1c(O)nc(SCC(=O)Nc2sc3c(c2C#N)CCCCCC3)nc1O | UniProt Q8IL11 | 27.9 µM (active) |
| COc1ccc(-c2c[nH]nc2N)cc1 | UniProt Q8IL11 | 60.8 µM (active) |

Attention now shifts to the item below.
Input Cc1ccc(NC(=O)CN(C)C(=O)CSc2n[nH]c(N)n2)cc1 . Output IC50: 44.7 µM (active)

----------
Quick note: these are AC50 numbers for system: Cytochrome P450 2C9 (Homo sapiens, UniProt P11712)
Sequence (P11712 whole entry): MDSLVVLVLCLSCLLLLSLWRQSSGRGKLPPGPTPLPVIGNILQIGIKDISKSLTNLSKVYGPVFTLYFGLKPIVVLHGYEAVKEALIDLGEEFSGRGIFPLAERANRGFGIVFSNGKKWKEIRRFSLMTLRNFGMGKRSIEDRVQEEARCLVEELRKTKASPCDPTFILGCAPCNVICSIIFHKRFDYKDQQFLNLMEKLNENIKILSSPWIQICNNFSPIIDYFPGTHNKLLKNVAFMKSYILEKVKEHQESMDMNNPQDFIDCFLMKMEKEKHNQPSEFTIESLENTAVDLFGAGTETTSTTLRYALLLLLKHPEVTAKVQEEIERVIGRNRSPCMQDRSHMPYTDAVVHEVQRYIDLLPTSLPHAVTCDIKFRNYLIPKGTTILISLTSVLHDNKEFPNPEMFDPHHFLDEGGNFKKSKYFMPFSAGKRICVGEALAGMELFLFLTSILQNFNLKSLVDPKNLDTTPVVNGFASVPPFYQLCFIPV

| Smiles Record | Recorded Measurement |
| --- | --- |
| c1ccc(Nc2ncnc3ccc(-c4ccc5c(c4)OCO5)cc23)cc1 | 1.58 µM (inconclusive) |
| Cc1nc(-n2nc3c(c2O)CCCC3)[nH]c(=O)c1Cc1ccccc1 | 4.47 µM (inconclusive) |
| Cc1nn2c(NCC(C)C)c3c(nc2c1-c1ccccc1)CCC3 | 0.708 µM (inconclusive) |
| COc1ccc(S(=O)(=O)N(CC(=O)N2CCCC2)Cc2ccccc2)cc1 | 1 µM (inconclusive) |
| Cc1cc(C)c2c(-n3cccc3)[nH]nc2n1 | 6.31 µM (inconclusive) |

Field AC50 (system: Cytochrome P450 2C9 (Homo sapiens, UniProt P11712)) for entry O=C(NCCOc1nc(N2CCOCC2)nc(N2CCOCC2)n1)Nc1ccccc1 = 15.8 µM (inconclusive)

Field AC50 (system: Cytochrome P450 2C9 (Homo sapiens, UniProt P11712)) for entry CC(C)On1c(SC(C)C)nc2ccccc2c1=O = 31.6 µM (inconclusive)

Field AC50 (system: Cytochrome P450 2C9 (Homo sapiens, UniProt P11712)) for entry c1ccc(N2CCC3(CCNCC3)CC2)nc1 = 31.6 µM (inconclusive)
